Reference source for all entries: patent US20230391845A1

# STUDY_SYSTEM: human glucagon receptor (human, UniProt P47871 26-477)
# Sequence (P47871 26-477): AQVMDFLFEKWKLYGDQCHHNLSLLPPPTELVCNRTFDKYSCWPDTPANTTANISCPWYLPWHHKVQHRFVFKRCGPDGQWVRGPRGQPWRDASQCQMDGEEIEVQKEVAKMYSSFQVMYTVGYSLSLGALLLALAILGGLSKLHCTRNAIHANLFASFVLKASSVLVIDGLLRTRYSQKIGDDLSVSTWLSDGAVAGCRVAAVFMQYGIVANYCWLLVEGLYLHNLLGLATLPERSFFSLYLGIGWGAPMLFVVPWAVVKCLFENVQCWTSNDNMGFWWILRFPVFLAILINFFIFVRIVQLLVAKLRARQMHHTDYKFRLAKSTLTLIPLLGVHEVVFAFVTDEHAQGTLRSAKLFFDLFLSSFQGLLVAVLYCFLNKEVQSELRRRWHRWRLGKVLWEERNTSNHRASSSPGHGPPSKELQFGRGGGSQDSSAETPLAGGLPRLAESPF
# RUN_DESCRIPTION: cell-based or functional assay
Where no end group is shown, it is not given here. [ ]: non-standard residue; d: D form. Aib = CC(C)(N)C(=O)O
# binarize hGcgR CRE Luc EC50 (pM): threshold 200 pM inclusive, high side 1 (yes), low side 0 (no)

Test whether the binder H[Aib]HGTFTSDYSILLEKQAAEEFVQWLLEGGPSSGAPPPS-NH2 (not fully specified (residue 16); printed as H-Aib-HGTFTSDYSILLE-K[(2S)-2-amino-6-[[(2S)-2-amino-6-[[(4S)-4-carboxy-4-(19-carboxynonadecanoylamino)butanoyl]amino]hexanoyl]amino]hexanoyl]-QAAEEFVQWLLEGGPSSGAPPPS-NH2) [Compound No. 49] records hGcgR CRE Luc EC50 (pM) of 200 pM or higher.
0 (no)

Then there is this binder:
Could you verify whether the entry Y[Aib]QGTFTSDYSIYLEKQAA[Aib]KFVQWLLEGGPSSGAPPPS-NH2 (not fully specified (residue 21)) [Compound No. 11] shows hGcgR CRE Luc EC50 (pM) of no less than 200 pM?
0 (no)
